Source: paper PMC5893361

Biological target: BmVAL-1 (Brugia malayi)
Construct: gene bma-scl-11.3; mature protein without 16-residue signal peptide, two vector-derived C-terminal residues; 206 residues; secreted from Nicotiana benthamiana; N-glycosylated at N52 and N138
Sequence (A0A0J9Y762 entry or part of it): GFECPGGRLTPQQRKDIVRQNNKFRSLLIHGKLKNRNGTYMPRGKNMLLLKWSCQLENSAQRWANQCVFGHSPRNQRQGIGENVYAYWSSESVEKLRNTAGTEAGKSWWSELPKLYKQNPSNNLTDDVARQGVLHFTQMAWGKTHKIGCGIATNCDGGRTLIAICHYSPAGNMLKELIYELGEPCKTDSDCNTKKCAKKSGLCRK
Assay: radioligand saturation binding, Q-sepharose adsorption
Conditions: read-out: Kd
attribute_measured: pKd
Please express pKd as -log10 of the molar concentration.

Ask | Checklist item: pKd tested on BmVAL-1 (Brugia malayi), entry CCCCCCCCCCCCCCCC(=O)O [palmitate] , value?
Reply | 4.08

---

Biological target: BmVAL-1 (Brugia malayi)
Construct: gene bma-scl-11.3; mature protein without 16-residue signal peptide, two vector-derived C-terminal residues; 206 residues; secreted from Nicotiana benthamiana; N-glycosylated at N52 and N138
Assay: radioligand saturation binding, Q-sepharose adsorption
attribute_measured: Kd
Please answer in the form of a number followed by its unit of measurement.

Ask | Which Kd value is on record for CC(C)CCC[C@@H](C)[C@H]1CC[C@H]2[C@@H]3CC=C4C[C@@H](O)CC[C@]4(C)[C@H]3CC[C@]12C ?
Reply | 990 nM
